target: voltage-sensitive Na+ channels; assay: Electrophysiological assay: patch-clamp recordings of voltage-sensitive Na+ currents in acutely dissociated rat hippocampal neurons; details: inactivated Na+ channels; acutely dissociated rat hippocampal neurons; read-out: apparent antagonist dissociation constant (Kd) for inactivated Na+ channels
assay-endpoint: Kd

test-smiles: CC(C)(NCc1ccc(OCc2ccccc2F)cc1)C(N)=O
assay-system: voltage-sensitive Na+ channels
measurement: ~1200 nM
